Recorded values, source PubChem BioAssay (EPA / NIEHS).

Biological target: human Vascular Endothelial Growth Factor Receptor 2 (VEGFR2), KDR (gene 3791) (UniProt P35968)
Sequence (P35968 whole entry, looked up): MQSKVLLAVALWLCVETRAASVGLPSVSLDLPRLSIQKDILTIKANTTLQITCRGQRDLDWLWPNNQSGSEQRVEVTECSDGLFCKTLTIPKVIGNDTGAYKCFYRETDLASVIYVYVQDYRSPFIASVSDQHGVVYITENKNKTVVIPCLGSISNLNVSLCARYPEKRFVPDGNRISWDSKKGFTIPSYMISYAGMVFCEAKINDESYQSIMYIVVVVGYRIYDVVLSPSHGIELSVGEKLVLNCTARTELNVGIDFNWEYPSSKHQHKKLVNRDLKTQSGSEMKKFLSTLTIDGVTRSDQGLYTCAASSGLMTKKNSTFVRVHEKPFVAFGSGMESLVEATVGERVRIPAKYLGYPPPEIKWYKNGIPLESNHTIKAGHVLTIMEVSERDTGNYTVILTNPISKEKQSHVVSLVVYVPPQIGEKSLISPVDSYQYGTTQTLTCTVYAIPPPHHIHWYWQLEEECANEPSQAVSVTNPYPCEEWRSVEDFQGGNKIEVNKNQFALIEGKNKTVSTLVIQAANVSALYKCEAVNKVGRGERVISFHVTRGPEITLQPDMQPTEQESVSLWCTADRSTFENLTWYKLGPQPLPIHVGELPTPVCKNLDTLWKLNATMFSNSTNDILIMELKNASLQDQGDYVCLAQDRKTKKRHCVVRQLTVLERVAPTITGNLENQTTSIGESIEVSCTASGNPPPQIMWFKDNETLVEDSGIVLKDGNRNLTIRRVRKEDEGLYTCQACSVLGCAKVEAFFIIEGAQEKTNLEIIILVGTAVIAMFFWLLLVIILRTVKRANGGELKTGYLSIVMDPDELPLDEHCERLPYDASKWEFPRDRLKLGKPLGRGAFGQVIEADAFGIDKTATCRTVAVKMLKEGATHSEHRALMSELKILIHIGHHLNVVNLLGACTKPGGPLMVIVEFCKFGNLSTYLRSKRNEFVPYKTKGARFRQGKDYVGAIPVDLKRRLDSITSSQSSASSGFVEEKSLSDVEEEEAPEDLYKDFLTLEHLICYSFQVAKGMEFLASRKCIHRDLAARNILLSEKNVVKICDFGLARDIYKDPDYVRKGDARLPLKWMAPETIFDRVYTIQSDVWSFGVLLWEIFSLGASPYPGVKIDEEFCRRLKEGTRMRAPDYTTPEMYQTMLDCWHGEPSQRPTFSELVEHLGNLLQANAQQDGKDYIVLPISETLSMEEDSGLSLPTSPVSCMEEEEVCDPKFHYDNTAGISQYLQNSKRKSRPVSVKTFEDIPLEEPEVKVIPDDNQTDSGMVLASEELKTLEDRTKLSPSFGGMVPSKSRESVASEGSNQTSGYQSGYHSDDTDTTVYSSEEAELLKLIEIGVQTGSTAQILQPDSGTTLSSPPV
Assay: NVS_ENZ_hVEGFR2: NovaScreen (NVS) Enzymatic Assay for human Vascular Endothelial Growth Factor Receptor 2 (VEGFR2) (AID 2283230)
Records with an inconclusive call do not appear. Calls of active or inactive are those of the source. Rule for the calls: active = hit-call score of the fitted dose curve at least 0.9, where 1 is the maximum; inconclusive = response in the unintended direction; inactive = score below 0.9.
PROPERTY_MEASURED: AC50

STRUCTURE_AS_SMILES: Cc1ccc(S(=O)(=O)NC(=O)NN2CCCCCC2)cc1
AC50: inactive
//
STRUCTURE_AS_SMILES: Cc1ncc([C@@H](CCCCCCc2ccc3c(n2)NCCC3)CC(=O)O)cn1
AC50: inactive
//
STRUCTURE_AS_SMILES: CCCCCCCC/C=C\CCCCCCCC(=O)OC[C@@H](O)[C@H]1OC[C@H](O)[C@H]1O
AC50: 40.7 µM (active)
//
STRUCTURE_AS_SMILES: Cc1nc(-c2ccccn2)ncc1C(=O)Nn1cc(C)c2cc(F)ccc21
AC50: inactive

AC50 reported for this molecule `CCN(CC)C(=S)SSC(=S)N(CC)CC` : inactive

* * *

Test: ACEA_ER_80hr: ACEA Biosciences xCELLigence Real-Time Cell Analysis on Estrogen Receptor Agonism for Proliferation (AID 2282667)
Settings: T47D proliferation, impedance (xCELLigence), 80 h
Records with an inconclusive call do not appear. Calls of active or inactive are those of the source. The calls were made as follows: active = hit-call score of the fitted dose curve at least 0.9, where 1 is the maximum; inconclusive = response in the unintended direction; inactive = score below 0.9.
Write down the outcome that applies. Available outcomes: t (active), f (inactive)

STRUCTURE_AS_SMILES: C=CN1CCCC1=O
ASSIGNED_LABEL: f

STRUCTURE_AS_SMILES: OCCNCCO
ASSIGNED_LABEL: f

STRUCTURE_AS_SMILES: O=C(O)CO
ASSIGNED_LABEL: f

Ask: Hi team, can someone confirm the assay call for `CCCCCCCCCC` ?
Reply: f

* * *

Read-out: Phosphatase and tensin (PTEN), PTEN (gene 5728)
Test: LTEA_HepaRG_PTEN: Life Technologies and Expression Analysis (LTEA) Assay for Phosphatase and tensin (PTEN) using HepaRG (AID 2283523)
Details: mRNA level, 48 h; actives raise or lower the signal
Calls of active or inactive are those of the source. Rule for the calls: active = hit-call score of the fitted dose curve at least 0.9, where 1 is the maximum; inactive = score below 0.9.
Write down the outcome that applies. Available outcomes: active, inactive

Observe how each entry below is paired with its result.
COMPOUND: Nc1ccn([C@@H]2O[C@H](CO)[C@@H](O)[C@@H]2O)c(=O)n1
ASSIGNED_LABEL: inactive
--
COMPOUND: CCCCCOC(C)=O
ASSIGNED_LABEL: inactive
--
COMPOUND: CCCCCCCC/C=C\CCCCCCCC(=O)OC[C@@H](O)[C@H]1OC[C@H](O)[C@H]1O
ASSIGNED_LABEL: inactive
--
COMPOUND: CCOC(N)=O
ASSIGNED_LABEL: inactive
--
COMPOUND: C[C@@H](Oc1ccc(CNC(=O)c2cccnc2Oc2ccc3c(c2)OCO3)c(F)c1)C(=O)O
ASSIGNED_LABEL: inactive

Ask: Hi team, can someone confirm the assay call for CC(C)CCCCCCOC(=O)C1CCCCC1C(=O)OCCCCCCC(C)C (stereo unspecified) ?
Reply: inactive

Ask: Hi team, can someone confirm the assay call for `C=CN1CCCC1=O` ?
Reply: inactive

Ask: Hi team, can someone confirm the assay call for `OC[C@H]1O[C@@](CO)(O[C@H]2O[C@H](CO)[C@@H](O)[C@H](O)[C@H]2O)[C@@H](O)[C@@H]1O` ?
Reply: inactive

Ask: Hi team, can someone confirm the assay call for `OC(Cn1cncn1)(Cn1cncn1)c1ccc(F)cc1F` ?
Reply: inactive

Ask: Hi team, can someone confirm the assay call for `COc1cc(C(C)C)c2c(c1)S(=O)(=O)N(COc1cc(=O)n3cccc(OCCN4CCCCC4)c3n1)C2=O` ?
Reply: active

Ask: Hi team, can someone confirm the assay call for CCCCC(CC)C(=O)OCCOCCOCCOC(=O)C(CC)CCCC (stereo unspecified) ?
Reply: inactive
